Attribution: the supplement of paper PMC11061612

system: HCC1428 (Breast Carcinoma); assay: combination Emax (second highest fraction inhibited in the dose matrix, 72 h); higher = more inhibition; extreme values may be limits of the assay
PARAMETER: combination Emax
Form: value (number only, do not type unit).

*Q* Kindly indicate its recorded combination Emax. Item: Cn1cnc2c(F)c(Nc3ccc(Br)cc3Cl)c(C(=O)NOCCO)cc21 [Selumetinib] + CCN(CCO)CCCOc1ccc2c(Nc3cc(CC(=O)Nc4cccc(F)c4)[nH]n3)ncnc2c1 [AZD2811] (first compound max 10 µM, 7x7, partner max 1 µM)
*A* 0.297

*Q* Given CN(C)CCCOc1ccc(-c2ccc3ncc4c(c3c2)n(C2CCOCC2)c(=O)n4C)cn1 [AZD0156] + CCN(CCO)CCCOc1ccc2c(Nc3cc(CC(=O)Nc4cccc(F)c4)[nH]n3)ncnc2c1 [AZD2811] (first compound max 1 µM, 7x7, partner max 1 µM) , respond with its combination Emax.
*A* 0.161

*Q* Input CC1(C)CCC(CN2CCN(c3ccc(C(=O)NS(=O)(=O)c4ccc(NCC5CCOCC5)c([N+](=O)[O-])c4)c(Oc4cnc5[nH]ccc5c4)c3)CC2)=C(c2ccc(Cl)cc2)C1 [Venetoclax] + C=CCn1c(=O)c2cnc(Nc3ccc(N4CCN(C)CC4)cc3)nc2n1-c1cccc(C(C)(C)O)n1 [AZD1775] (first compound max 1 µM, partner max 1 µM) , output reported combination Emax.
*A* 0.22

*Q* Give the measured combination Emax for CC(=O)Nc1cccc(-n2c(=O)n(C3CC3)c(=O)c3c(Nc4ccc(I)cc4F)n(C)c(=O)c(C)c32)c1 [Trametinib] + Cc1nc(-c2cn3c(n2)-c2ccc(-c4cnn(C(C)(C)C(N)=O)c4)cc2OCC3)n(C(C)C)n1 [Taselisib] (first compound max 1 µM, 7x7, partner max 10 µM)
*A* 0.278
